molecular target: HCV NS3 protease domain (Hepatitis C virus genotype 1b); construct: The first 181 amino acids of NS3 (residues 1027-1207 of the viral polyprotein); hexa-histidine (C); made in house; host or cells: E. coli BL21/DE3 pLysS; experiment: biochemical; conditions: Enzyme Assay 1 (HCV NS3 Protease Domain Peptide Cleavage Assay) activity, apparent Ki class
Sequence (Q9WMX2 1027-1207, other chains not shown): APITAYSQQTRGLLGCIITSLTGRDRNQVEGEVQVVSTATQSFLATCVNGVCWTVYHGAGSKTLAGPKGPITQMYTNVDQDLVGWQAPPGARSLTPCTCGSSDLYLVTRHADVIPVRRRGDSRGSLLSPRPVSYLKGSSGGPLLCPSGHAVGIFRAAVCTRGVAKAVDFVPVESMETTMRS
Ki values by entry
Readout Name: Ki

Molecule	Reading
CCC[C@H](NC(=O)[C@@H]1C[C@]2(CC(c3ccc4c(c3)OCO4)=NO2)CN1C(=O)[C@@H](NC(=O)CC1CCOCC1)C(C)(C)C)C(=O)C(N)=O	> 500 nM
CCC[C@H](NC(=O)[C@@H]1C[C@]2(CC(c3cccc(Cl)c3)=NO2)CN1C(=O)C1=CC(c2cc(OC)ccc2OC)NC(=O)N1)C(=O)C(=O)NC1CC1 (some centres unmarked)	> 500 nM
CCCNC(=O)C(=O)[C@H](CCC)NC(=O)[C@@H]1C[C@]2(CC(c3cccc(Cl)c3)=NO2)CN1C(=O)[C@@H](NC(=O)CC1CCCCC1)C(C)(C)C	100 to 500 nM
CCC[C@H](NC(=O)[C@@H]1C[C@]2(CC(CC)=NO2)CN1C(=O)[C@@H](NC(=O)[C@@H](NC(=O)c1cnccn1)C1CCCCC1)C(C)(C)C)C(=O)C(=O)NC1CC1	< 100 nM
CCC[C@H](NC(=O)[C@@H]1C[C@]2(CC(c3cccc(Cl)c3)=NO2)CN1C(=O)[C@@H](NC(=O)[C@@H]1CCC(=O)N1Cc1cccc(Cl)c1)C(C)(C)C)C(=O)C(=O)NC1CC1	100 to 500 nM
